# System: NIH3T3
# experiment.notes: Cytotoxic Profiling of Annotated Libraries Using Quantitative High-Throughput Screening (AID 1296008); note: % is set by controls: 0 for no effect and ±100 for the full control effect; nearly all actives have a fitted effect of over 60% in size
# condition.set: Five cell lines viability, CellTiter-Glo ATP luminescence, 48-72 h; stronger effect = lower value
# Protocol: Cell-based phenotypic screening is a commonly used approach to discover biological pathways, novel drug targets, chemical probes and high-quality hit-to-lead molecules. […] A pintool (Kalypsys) was used to transfer 23 nL of compound solution to the 1536-well assay plates. […] Plates were left at room temperature for 10 min before imaging the ATP-coupled luminescence using a ViewLux microplate imager (PerkinElmer, Waltham, MA).
Results filed as inconclusive are left out.
Listed next: entries and their corresponding max response.
property: max response (%)

In [3]: df
Out[3]:
                                    molecule  u  reported_result
 0               Cc1c(N)c(=O)n(-c2ccccc2)n1C  %            -4.09
 1  C[N+]1(C)[C@@H]2CC(OC(=O)[C@H](CO)c3ccccc3)C[C@H]1[C@@H]1O[C@@H]12 (some centres undefined)  %             4.27
 2  O=C(O)[C@H](CC(=O)N1C[C@H]2CCCC[C@H]2C1)Cc1ccccc1  %             3.24
 3                          O=C(CS)Nc1ccccc1  %             0.87
 4  CN1[C@@H]2CC[C@H]1CC(OC(=O)C(CO)c1ccccc1)C2 (some centres undefined)  %             3.27
 5  O=C(O)CC1CC(c2ccccc2)=NO1 (centres undefined)  %            -6.76
 6  Cc1c(C(=O)O)c(O)cc2c1C(=O)c1c(O)c([C@@H]3O[C@H](CO)[C@@H](O)[C@H](O)[C@H]3O)c(O)c(O)c1C2=O  %            -21.1
 7                   O=C(OCc1ccccc1)c1ccccc1  %            0.848
 8                      CCCOC(=O)c1ccc(O)cc1  %             3.51
 9  COC(=O)C1=C(C)NC(C)=C(C(=O)OCC(C)=O)C1c1ccccc1[N+](=O)[O-] (centres undefined)  %            -4.97
10  CC(N)C(=O)OC(C)(C)Cc1ccc(Cl)cc1 (centres undefined)  %             -1.5
11  COc1cc2c3cc1Oc1cc(ccc1O)C[C@@H]1c4c(cc(OC)c(O)c4Oc4ccc(cc4)C[C@@H]3N(C)CC2)CC[N+]1(C)C  %             4.48
12                                      NCCO  %           -0.614
13  CS(=O)(=O)c1ccc(-n2nc(C(F)(F)F)cc2-c2ccc(F)cc2)cc1  %            -2.48
14  O=c1[nH]c2ccccc2n1CCCN1CCN(C(c2ccccc2)c2ccccc2)CC1  %            -21.6
15               Cc1nc2ccccc2n1Cc1ccc(Cl)cc1  %            -22.4
16         Cc1ccc(C(=O)c2ccc(CC(=O)O)n2C)cc1  %             0.61
17        COc1cc(CNC(=O)CCCC/C=C/C(C)C)ccc1O  %             -2.4
18  NS(=O)(=O)c1ccc(-n2nc(C(F)(F)F)cc2-c2ccc(Cl)cc2)cc1  %            -15.5
19  C#C[C@]1(O)CC[C@H]2[C@@H]3CCc4cc(O)ccc4[C@H]3CC[C@@]21C  %            -26.3
20  COC(=O)C1=C(C)NC(C)=C(C(=O)OCC(C)C)C1c1ccccc1[N+](=O)[O-] (centres undefined)  %            -5.79
21  C#CC1(O)CC[C@H]2[C@@H]3CCC4=CCCC[C@@H]4[C@H]3CC[C@@]21C (some centres undefined)  %           -0.384
22  O=C(CCN1CCN(CCO)CC1)N1c2ccccc2Sc2ccc(C(F)(F)F)cc21  %             1.15
23         O=C(O)c1ccccc1Nc1cccc(C(F)(F)F)c1  %            -2.26
24  CNC(=O)c1c(I)c(NC(=O)CCCCC(=O)Nc2c(I)c(C(=O)O)c(I)c(C(=O)NC)c2I)c(I)c(C(=O)O)c1I  %            -3.88
25  CC(C)OC(=O)c1cc(C(=O)OC(C)C)cc([N+](=O)[O-])c1  %            -2.82
26           c1ccc(CCNc2nc(-c3ccccc3)cs2)cc1  %            -13.6
27       Nc1c(CC(=O)O)cccc1C(=O)c1ccc(Br)cc1  %             2.91
28        Cc1c(Nc2ncccc2C(=O)O)cccc1C(F)(F)F  %            -21.5
29  Cc1onc(-c2c(F)cccc2Cl)c1C(=O)N[C@@H]1C(=O)N2[C@@H]1SC(C)(C)[C@@H]2C(=O)O  %            -7.78
30                          CCCCCCCCCCCCOCCO  %             1.59
31  CCCCCCCCCCCC(=O)[O][Sn]([CH2]CCC)([CH2]CCC)[O]C(=O)CCCCCCCCCCC  %             4.84
32              CN(C)c1ccc(N=NS(=O)(=O)O)cc1  %             2.87
33              O=C(Nc1ccc2[nH]ncc2c1)C1CCC1  %             4.63
